- Experiment: in vivo
- Condition Summary: male, C57BL/6, mouse, ip, 50 mg/kg
Readout Name: half-life (h)

# Smiles Repr, Readout Name, Recorded Value
data = [
    ("N=c1c2c(-c3ccccc3)c(-c3ccccc3)n(Cc3ccccc3)c2ncn1[C@H]1CC[C@H](O)CC1", "half-life", 16.4),
]

###

- Experiment: in vivo
- Condition Summary: female, BALB/c, mouse, ip, 5 mg/kg

# Compound, Units Label, half-life
data = [
    ("N=c1c2c(-c3ccccc3)c(-c3ccccc3)n(Cc3ccccc3)c2ncn1[C@H]1CC[C@H](O)CC1 [Compound 5f]", "min", 278),
]
